Assignment: determine reported DC50 for the given compounds.
# TGT: AsPC-1 HiBiT-KRASG12D (Homo sapiens, UniProt P01116, G12D)
# Construct: insert the HiBiT tag onto the N-terminus of one or more of the endogenous KRAS alleles; endogenous in cells; host or cells: AsPC-1 (ATCC CRL-1682), CRISPR-Cas9 knock-in clone, one tagged allele
# Sequence (P01116 1-188 isoform P01116-2 G12D): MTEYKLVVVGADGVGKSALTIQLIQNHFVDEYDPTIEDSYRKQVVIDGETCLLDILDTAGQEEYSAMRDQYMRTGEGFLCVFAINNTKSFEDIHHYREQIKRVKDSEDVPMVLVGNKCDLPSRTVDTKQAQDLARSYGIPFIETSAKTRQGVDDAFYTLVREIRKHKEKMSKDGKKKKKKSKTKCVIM
# PROCEDURE SUMMARY: HiBiT degradation assay (G12D), AsPC-1 HiBiT-KRASG12D cells
# Format: cell-based
# MEASUREMENT PARAMETERS: AsPC-1 HiBiT-KRASG12D cells, 24 hours treatment, HiBiT luminescence

Measured DC50, `CCc1cccc2cc(O)cc(-c3ncc4c(N5CC6CCC(C5)N6)nc(OC[C@H]5CN(CC6CN(c7cc([C@H](C(=O)N8C[C@H](O)C[C@H]8C(=O)N[C@@H](C)c8ccc(-c9scnc9C)cc8)C(C)C)on7)C6)CCN5C)nc4c3F)c12` : < 600 nM

Measured DC50, `CCc1cccc2cc(O)cc(-c3ncc4c(N5CC6CCC(C5)N6)nc(OC[C@]56CCCN5[C@@H](COCC(=O)N[C@H](C(=O)N5C[C@H](O)C[C@H]5C(=O)N[C@@H](C)c5ccc(-c7scnc7C)cc5)C(C)(C)C)CC6)nc4c3F)c12` : 600 to 1000 nM
